# System: DLD-1 KLF5 promoter-luciferase reporter, luminescence
# test protocol: KLF5 promoter reporter inhibitors, dose response, luminescence, DLD-1 cells, luciferase reporter (AID 1973)
pIC50: −log10 of the molar value.
The entries below are paired with their reported pIC50.

molecule	pIC50
Cc1ccccc1OCC(=O)Nc1cccc(C(=O)O)c1	5.90
CC(C)(C)C(=O)Nc1cc2nn(-c3ccccc3)nc2cc1Cl	7.01
COc1ccc(OC)c(N/C=C/C(=O)c2ccccc2)c1	5.77
CCOC(=O)c1sc(NC(=O)c2cc3c(s2)CCC(C)C3)nc1C (configuration not stated)	6.96
COc1ccc2nc(SCC(=O)NC3CCCC3)c(C)cc2c1	5.87
CCOc1cccc(/C=N/NC(=O)c2ccc3c(c2)OCCO3)c1O	5.78
CCN1C=CC(=C2C(=O)c3ccccc3C2=O)C=C1	6.02
CN(C)c1ccc(/C=N/Nc2cccc(C(=O)O)c2)cc1	6.21
Cc1ccc(C(=O)Nc2cnc3ccccc3c2)cc1	6.13
Cc1cc(/C=N/Nc2nc(N)ncc2[N+](=O)[O-])c(C)n1-c1ccccc1F	6.40
CC1CCN(c2ccc(-c3cccs3)nn2)CC1	5.90
O=C(c1cc(-c2ccccc2Cl)on1)N1CCCC1	5.46

###

This listing pairs molecules with measured IC50.
# System: DLD-1 KLF5 promoter-luciferase reporter, luminescence
# test protocol: KLF5 promoter reporter inhibitors, dose response, luminescence, DLD-1 cells, luciferase reporter (AID 1973)
measurement kind: IC50

smiles input	value measured
O=C(NCCc1ccccc1)c1ccc2c(c1)OCCCO2	421 nM
COc1ccc(N/N=C/c2c(C(=O)O)ccc3ccccc23)cc1	1690 nM
Nc1c(C(=O)Nc2cccc(C(=O)O)c2)sc2nc3c(cc12)CCCC3	1470 nM
CCOc1cc(Br)cc(/C=N/NC(=O)c2cccnc2)c1O	1660 nM
Clc1ccccc1/C=C/c1nc(-c2ccccn2)no1	1540 nM
O=C(CSc1n[nH]c(-c2ccccn2)n1)Nc1ccc(Cl)cc1	4380 nM
CC(C)(C)C(=O)Nc1ccc(NC(=O)c2ccco2)nc1	960 nM
O=C(CN1C(=O)c2ccccc2S1(=O)=O)c1ccc(Cl)cc1Cl	1690 nM
C#Cc1ccc([C@@H]2C=C(C(=O)N3CCN(Cc4ccccc4)CC3)O[C@H](OCCCCO)C2)cc1	2720 nM
O=C(O)CSCC(=O)Nc1ccc(C2CCCCC2)cc1	1290 nM
CC(C)Oc1ccc(C(=O)Nc2nc3ccccc3[nH]2)cc1	1650 nM

###

# System: DLD-1 KLF5 promoter-luciferase reporter, luminescence
# test protocol: KLF5 promoter reporter inhibitors, dose response, luminescence, DLD-1 cells, luciferase reporter (AID 1973)
Entries annotated with measured IC50

smiles input	IC50
COc1ccc(C(=O)N/N=C/c2cc(Br)ccc2O)cc1OC	1560 nM
NS(=O)(=O)c1ccc(N=Nc2ccc(O)c3ncccc23)cc1	3180 nM
CCc1ccn2cc(-c3cc(-c4ccccc4)no3)nc2c1	660 nM
Cc1ccc(-c2nnc(SCC(=O)Nc3ccccc3F)o2)cc1	2500 nM
COc1cccc(/C=N/Nc2nccnc2Cl)c1O	2080 nM
O=C(Nc1nc2cc3c(cc2s1)OCCO3)c1ccco1	1550 nM
COc1ccc2[nH]c(C(=O)N/N=C/c3ccc(OC)c(O)c3)cc2c1	5120 nM
CN(C)c1ccc(Nc2nc(N)c3ccccc3n2)cc1	2520 nM
CC(C)(C)c1ccc(-c2noc(CCC(=O)Nc3cccnc3)n2)cc1	104 nM
COC(=O)c1ccc2nc(Nc3nc4ccc(F)cc4s3)sc2c1	6.98 nM
O=C(NCCc1ccccc1F)c1ccc2c(c1)OCCO2	424 nM
Cc1ccc(C(=O)Nc2nc3ccccc3[nH]2)cc1	3530 nM

###

# System: DLD-1 KLF5 promoter-luciferase reporter, luminescence
# test protocol: KLF5 promoter reporter inhibitors, dose response, luminescence, DLD-1 cells, luciferase reporter (AID 1973)
Active and inactive are the calls of the source.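 Rule for the calls: active = IC50 dose giving half inhibition of the KLF5 reporter of 10 micromolar or lower; inactive = IC50 above 10 micromolar.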
Classes used: True = active, False = inactive

compound	cat
C[C@@H]1O[C@@H](O[C@H]2C[C@@H](O)[C@]3(CO)[C@H]4[C@H](O)C[C@]5(C)[C@@H](C6COC(=O)C6)CC[C@]5(O)[C@@H]4CC[C@]3(O)C2)[C@H](O)[C@H](O)[C@H]1O (stereo not given in full)	True
COc1cccc(/C=N/Nc2ccc([N+](=O)[O-])cn2)c1O	True
CCc1ccn2cc(-c3ccc4c(c3)OCO4)nc2c1	True
CCc1ccc(C(=O)Nc2nc3ccccc3[nH]2)cc1	True
Cc1ccc2[nH]c(C(=O)N/N=C/c3ccccc3O)c(C)c2c1	False

###

# Tested on: DLD-1 KLF5 promoter-luciferase reporter, luminescence
# test protocol: KLF5 promoter reporter inhibitors, dose response, luminescence, DLD-1 cells, luciferase reporter (AID 1973)
pIC50: −log10 of the molar value.

smiles input	pIC50
C[C@@H]1O[C@@H](O[C@H]2C[C@@H](O)[C@]3(CO)[C@H]4[C@H](O)C[C@]5(C)[C@@H](C6=CC(=O)OC6)CC[C@]5(O)[C@@H]4CC[C@]3(O)C2)[C@H](O)[C@H](O)[C@H]1O	6.78
O=C(Nc1nccs1)c1cc2c(s1)CCCCC2	5.54
Oc1ccc(N=Nc2ccccc2C(F)(F)F)c2cccnc12	5.72
O=C(N/N=C/c1c(O)ccc2ccccc12)c1ccc(Br)o1	5.75
O=C(N/N=C/c1cc(Cl)ccc1O)c1cccnc1	5.79
O=C(Nc1cccc(C(=O)O)c1)Nc1ccc2c(c1)OCO2	6.08

###

# Test system: DLD-1 KLF5 promoter-luciferase reporter, luminescence
# test protocol: KLF5 promoter reporter inhibitors, dose response, luminescence, DLD-1 cells, luciferase reporter (AID 1973)
The source made the active and inactive calls.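 The calls were made as follows: active = IC50 dose giving half inhibition of the KLF5 reporter of 10 micromolar or lower; inactive = IC50 above 10 micromolar.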
Outcome codes: active, inactive

smiles input	assay system	cat
C/C(=N\NC(=O)c1n[nH]c2c1CCC2)c1cccs1	DLD-1 KLF5 promoter-luciferase reporter, luminescence	active
O=C1C(Nc2ccccc2)=C(N2CCCCC2)C(=O)c2ccccc21	DLD-1 KLF5 promoter-luciferase reporter, luminescence	inactive
Cc1ccc2nc(NC(=O)CCCc3nc4ccccc4s3)sc2c1	DLD-1 KLF5 promoter-luciferase reporter, luminescence	active
COc1ccc(-n2ncc3c(N4CCCCC4)ncnc32)cc1	DLD-1 KLF5 promoter-luciferase reporter, luminescence	active
Nc1ccc(-c2nc3ccc(C(=O)O)cc3s2)cc1	DLD-1 KLF5 promoter-luciferase reporter, luminescence	active
Cc1ccc(C(=O)N/N=C/c2c(O)ccc3ccccc23)cn1	DLD-1 KLF5 promoter-luciferase reporter, luminescence	active

###

# Tested on: DLD-1 KLF5 promoter-luciferase reporter, luminescence
# test protocol: KLF5 promoter reporter inhibitors, dose response, luminescence, DLD-1 cells, luciferase reporter (AID 1973)
Activity calls are given as the source filed them.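 The calls were made as follows: active = IC50 dose giving half inhibition of the KLF5 reporter of 10 micromolar or lower; inactive = IC50 above 10 micromolar.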
Classes used: active, inactive

molecule	assay system	cat
COC(=O)c1c(N)sc(C(=O)NCCc2ccccc2)c1C	DLD-1 KLF5 promoter-luciferase reporter, luminescence	active
CC(C)CC(NC(=O)CCCNC(=O)CCC(=O)OC1O[C@H]2OC3(C)CC[C@H]4[C@H](C)CCC(C1C)C24OO3)C(=O)O (stereo partly drawn)	DLD-1 KLF5 promoter-luciferase reporter, luminescence	active
CC(C)(C)c1ccc(C(=O)Nc2sc3c(c2C(=O)O)CCC3)cc1	DLD-1 KLF5 promoter-luciferase reporter, luminescence	active
CCOC(=O)c1sc(NC(=O)c2sc(C)nc2C)nc1C	DLD-1 KLF5 promoter-luciferase reporter, luminescence	inactive
O=C(N/N=C/c1cccc(Oc2ccccc2)c1)c1ccccc1F	DLD-1 KLF5 promoter-luciferase reporter, luminescence	active
COc1cc(/C=N/O)ccc1OCc1ccc(C(=O)O)cc1	DLD-1 KLF5 promoter-luciferase reporter, luminescence	active
O=C(NCCc1ccccc1)c1ccc2c(c1)OCCO2	DLD-1 KLF5 promoter-luciferase reporter, luminescence	active
COC(=O)C1=C(CN2CCCc3ccccc32)NC(=O)NC1c1ccc(F)cc1 (stereo not drawn)	DLD-1 KLF5 promoter-luciferase reporter, luminescence	active
O=C(N/N=C/c1cc(Br)ccc1OC(=O)c1ccc(Br)cc1)c1ccncc1	DLD-1 KLF5 promoter-luciferase reporter, luminescence	active
O=C(O)c1ccc(N/N=C/c2c[nH]c3ccccc23)cc1	DLD-1 KLF5 promoter-luciferase reporter, luminescence	active
COC(=O)c1nn(-c2ccc3c(c2)CCN3C(C)=O)cc1O	DLD-1 KLF5 promoter-luciferase reporter, luminescence	active
COc1ccc(OC)c2[nH]c(C(=O)N/N=C/c3ccccc3O)cc12	DLD-1 KLF5 promoter-luciferase reporter, luminescence	active
Cc1nc2ccccn2c1-c1csc(Nc2cccc(O)c2)n1	DLD-1 KLF5 promoter-luciferase reporter, luminescence	active
CCCc1ccc(-c2ccc(/C=C/C(=O)O)cc2)nc1	DLD-1 KLF5 promoter-luciferase reporter, luminescence	active
Cc1cc(C(=O)COC(=O)c2ccccc2O)c(C)n1Cc1cccs1	DLD-1 KLF5 promoter-luciferase reporter, luminescence	active
CC(C)(C)c1ccc(-c2noc(CCC(=O)NCC3CCCO3)n2)cc1 (stereo not drawn)	DLD-1 KLF5 promoter-luciferase reporter, luminescence	active
N/C(=N\OCc1ccc([N+](=O)[O-])cc1)c1ccccn1	DLD-1 KLF5 promoter-luciferase reporter, luminescence	active
Cc1cc(C(=O)CN2C(=O)c3ccccc3S2(=O)=O)c(C)n1CC1CCCO1 (stereo not drawn)	DLD-1 KLF5 promoter-luciferase reporter, luminescence	active
CCc1ccc(NC(=O)c2cnn3ccccc23)cc1	DLD-1 KLF5 promoter-luciferase reporter, luminescence	active
Cc1ccc(C(=O)N/N=C/c2cc(Br)ccc2O)cn1	DLD-1 KLF5 promoter-luciferase reporter, luminescence	active
CN(CCO)c1ccc(/C=N/Nc2nncc3ccccc23)cc1	DLD-1 KLF5 promoter-luciferase reporter, luminescence	active
Cc1ccc(S(=O)(=O)Nc2cc(Cl)c(O)c3ncccc23)cc1	DLD-1 KLF5 promoter-luciferase reporter, luminescence	active
COc1ccc(/C=N/NC(=O)CCn2c3ccccc3c3ccccc32)cc1O	DLD-1 KLF5 promoter-luciferase reporter, luminescence	active
